Test: Liver microsomal metabolism assay, rat
Type: in vitro ADME
Settings: SD, pH 7.4; rat liver microsomes 0.5 mg/mL, compound 1 μM, 37° C.; read-out: Rat liver microsome assay CLint
Measured endpoint: microsomal CLint at 1 μM (µL/min/mg)

- Molecule: "[2H]C([2H])(c1cc(F)cc(F)c1)c1ccc2[nH]nc(NC(=O)c3ccc(N4CCN(C([2H])([2H])[2H])CC4)cc3NC3CCOCC3)c2c1 [Compound T-11]"
  Readout number: 31
- Molecule: "[2H]C([2H])(c1cc(F)cc(F)c1)c1ccc2[nH]nc(NC(=O)c3ccc(N4CCN(C)CC4)cc3NC3CCOCC3)c2c1 [Compound T-7]"
  Readout number: 33.7
- Molecule: "[2H]C1([2H])CC(Nc2cc(N3CCN(C)CC3)ccc2C(=O)Nc2n[nH]c3ccc(Cc4cc(F)cc(F)c4)cc23)CC([2H])([2H])O1 [Compound T-8]"
  Readout number: 33.6
- Molecule: "[2H]c1cc(C(=O)Nc2n[nH]c3ccc(Cc4cc(F)cc(F)c4)cc23)c(NC2CCOCC2)c([2H])c1N1CCN(C([2H])([2H])[2H])CC1 [Compound T-5]"
  Readout number: 31
- Molecule: "[2H]C([2H])([2H])N1C([2H])([2H])C([2H])([2H])N(c2ccc(C(=O)Nc3n[nH]c4ccc(Cc5cc(F)cc(F)c5)cc34)c(NC3CCOCC3)c2)C([2H])([2H])C1([2H])[2H] [Compound T-3]"
  Readout number: 27.3

FYI, the data here is from patent US11267806B2.
